experiment: Percent reduction of thrombin receptor activating peptide (12 uM) induced platelet aggregation was determined at 0.5 mM concentration; format: functional, Homo sapiens
measured-property: Reduction (%)
Numbers only here, please. The scale is %.

{"compound": "Cc1ncc(Cn2cnnn2)c(CO)c1O", "measured-property": "Reduction", "reading": 7}

# return recorded Reduction for entry Cc1ncc(Cn2nnc(N)n2)c(CO)c1O
2

Name the recorded Reduction of the item Cc1ncc(C/N=C(\S)Nc2ccc(F)cc2)c(CO)c1O in your answer.
6

Given Cc1ncc(COP(=O)(O)O)c(C=O)c1O [PYRIDOXAL PHOSPHATE ANHYDROUS] , respond with its Reduction.
0

Determine from records and report Reduction for Cc1ncc(CNC(=O)Nc2ccc(F)cc2)c(CO)c1O
0

Give Reduction for Cc1ncc(CO)c(CO)c1O [PYRIDOXINE]
0

Fill in Reduction for record Cc1ncc(Cn2ccnc2C)c(CO)c1O
3

Determine from records and report Reduction for Cc1ncc(CNc2ccc(C(=N)N)cc2)c(CO)c1O
88

# credit: ChEMBL document CHEMBL1137850
